- System: CN0375-F725-PDC KRAS spheroid viability
- Experiment Summary: Anticancer human tumor CN0375-F725-PDC patient-derived colon carcinoma cell line growth inhibition [KRAS2]
- Settings: curve of first compound; second compound 10 µM; spheroids with HUVEC and MSC

Compound | IC50
CC1COCCN1c1cc(-c2ccnn2C)c2ccnc(-c3ccn[nH]3)c2n1 (stereo unspecified) + CC1OCC2(CCN(c3cnc(Sc4ccnc(N)c4Cl)c(N)n3)CC2)C1N | 614 nM
CC1(C)CCC(CN2CCN(c3ccc(C(=O)NS(=O)(=O)c4ccc(NCC5CCOCC5)c([N+](=O)[O-])c4)c(Oc4cnc5[nH]ccc5c4)c3)CC2)=C(c2ccc(Cl)cc2)C1 + CNCc1ccccc1-c1csc(C(C)Nc2nc(C)nc3cc(OC)c(OC)cc23)c1 | < 31.6 nM
COC(=O)c1ccc2c(C(=Nc3ccc(N(C)C(=O)CN4CCN(C)CC4)cc3)c3ccccc3)c(O)[nH]c2c1 + CC1OCC2(CCN(c3cnc(Sc4ccnc(N)c4Cl)c(N)n3)CC2)C1N | 1270 nM
O=C(c1cc(Cc2n[nH]c(=O)c3ccccc23)ccc1F)N1CCN(C(=O)C2CC2)CC1 + CNCc1ccccc1-c1csc(C(C)Nc2nc(C)nc3cc(OC)c(OC)cc23)c1 | < 31.6 nM
CC(C)NCC(C(=O)N1CCN(c2ncnc3c2C(C)CC3O)CC1)c1ccc(Cl)cc1 (stereo unspecified) + C=CC(=O)N1CCN(c2nc(=O)n(-c3c(C)ccnc3C(C)C)c3nc(-c4c(O)cccc4F)c(F)cc23)C(C)C1 | > 10000 nM
CN(C)C/C=C/C(=O)Nc1cc2c(Nc3ccc(F)c(Cl)c3)ncnc2cc1O[C@H]1CCOC1 + COc1cc2nc(C)nc(NC(C)c3cc(N)cc(C(F)(F)F)c3)c2cc1OC1CCOC1 | > 100 nM
CC(C)n1nc(-c2ccc3oc(N)nc3c2)c2c(N)ncnc21 + CNCc1ccccc1-c1csc(C(C)Nc2nc(C)nc3cc(OC)c(OC)cc23)c1 | < 0.316 nM
Cn1ncnc1[C@H]1c2n[nH]c(=O)c3cc(F)cc(c23)N[C@@H]1c1ccc(F)cc1 + COc1cc2nc(C)nc(NC(C)c3cc(N)cc(C(F)(F)F)c3)c2cc1OC1CCOC1 | < 0.316 nM
CC1(C)CCC(CN2CCN(c3ccc(C(=O)NS(=O)(=O)c4ccc(NCC5CCOCC5)c([N+](=O)[O-])c4)c(Oc4cnc5[nH]ccc5c4)c3)CC2)=C(c2ccc(Cl)cc2)C1 + CC1OCC2(CCN(c3cnc(Sc4ccnc(N)c4Cl)c(N)n3)CC2)C1N | 1610 nM
O=C(c1cc(Cc2n[nH]c(=O)c3ccccc23)ccc1F)N1CCN(C(=O)C2CC2)CC1 + CC1OCC2(CCN(c3cnc(Sc4ccnc(N)c4Cl)c(N)n3)CC2)C1N | > 10000 nM
Cn1nccc1Nc1nccc(-c2cc3c(s2)C(C)(C)N(CCN2CCOCC2)C3=O)n1 + COc1cc2nc(C)nc(NC(C)c3cc(N)cc(C(F)(F)F)c3)c2cc1OC1CCOC1 | < 31.6 nM

----------
Overview of reported pIC50 across a group of molecules:
- Test system: CN0375-F725-PDC KRAS spheroid viability
- Experiment Summary: Anticancer human tumor CN0375-F725-PDC cell line growth inhibition [KRAS2];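 note: spheroids exposed to agents for 7 days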
- Settings: curve of first compound; second compound 1 µM; spheroids with HUVEC and MSC
pIC50: −log10 of the molar value.

Molecule | Readout Relation | pIC50
CC(=O)Nc1cccc(-n2c(=O)n(C3CC3)c(=O)c3c(Nc4ccc(I)cc4F)n(C)c(=O)c(C)c32)c1 + C=CC(=O)N1CCN(c2nc(=O)n(-c3c(C)ccnc3C(C)C)c3nc(-c4c(O)cccc4F)c(F)cc23)C(C)C1 | = | 8.31
CC(=O)OC12COC1CC(O)C1(C)C(=O)C(O)C3=C(C)C(OC(=O)C(O)C(NC(=O)OC(C)(C)C)c4ccccc4)CC(O)(C(OC(=O)c4ccccc4)C21)C3(C)C (centres undefined) + CC1OCC2(CCN(c3cnc(Sc4ccnc(N)c4Cl)c(N)n3)CC2)C1N | < | 5.50
Cn1nccc1Nc1nccc(-c2cc3c(s2)C(C)(C)N(CCN2CCOCC2)C3=O)n1 + COc1cc2nc(C)nc(NC(C)c3cc(N)cc(C(F)(F)F)c3)c2cc1OC1CCOC1 | = | 5.80
COc1cc2nccc(Oc3ccc(NC(=O)C4(C(=O)Nc5ccc(F)cc5)CC4)cc3)c2cc1OC + CNCc1ccccc1-c1csc(C(C)Nc2nc(C)nc3cc(OC)c(OC)cc23)c1 | > | 7.50
CC1(C)CCC(CN2CCN(c3ccc(C(=O)NS(=O)(=O)c4ccc(NCC5CCOCC5)c([N+](=O)[O-])c4)c(Oc4cnc5[nH]ccc5c4)c3)CC2)=C(c2ccc(Cl)cc2)C1 + C=CC(=O)N1CCN(c2nc(=O)n(-c3c(C)ccnc3C(C)C)c3nc(-c4c(O)cccc4F)c(F)cc23)C(C)C1 | = | 5.46
COC(=O)c1ccc2c(C(=Nc3ccc(N(C)C(=O)CN4CCN(C)CC4)cc3)c3ccccc3)c(O)[nH]c2c1 + C=CC(=O)N1CCN(c2nc(OCC3CCCN3C)nc3c2CCN(c2cccc4cccc(C)c24)C3)CC1CC#N | = | 5.83
CC(=O)OC12COC1CC(O)C1(C)C(=O)C(O)C3=C(C)C(OC(=O)C(O)C(NC(=O)OC(C)(C)C)c4ccccc4)CC(O)(C(OC(=O)c4ccccc4)C21)C3(C)C (centres undefined) + C=CC(=O)N1CCN(c2nc(OCC3CCCN3C)nc3c2CCN(c2cccc4cccc(C)c24)C3)CC1CC#N | < | 5.50
COc1cc2nccc(Oc3ccc(NC(=O)C4(C(=O)Nc5ccc(F)cc5)CC4)cc3)c2cc1OC + COc1cc2nc(C)nc(NC(C)c3cc(N)cc(C(F)(F)F)c3)c2cc1OC1CCOC1 | = | 5.42
CC(C)n1nc(-c2ccc3oc(N)nc3c2)c2c(N)ncnc21 + C=CC(=O)N1CCN(c2nc(=O)n(-c3c(C)ccnc3C(C)C)c3nc(-c4c(O)cccc4F)c(F)cc23)C(C)C1 | = | 7.23
